# Tested on: Opioid receptors; mu & kappa (Homo sapiens) (UniProt P41145+P35372)
# Sequence (P35372 whole entry, looked up): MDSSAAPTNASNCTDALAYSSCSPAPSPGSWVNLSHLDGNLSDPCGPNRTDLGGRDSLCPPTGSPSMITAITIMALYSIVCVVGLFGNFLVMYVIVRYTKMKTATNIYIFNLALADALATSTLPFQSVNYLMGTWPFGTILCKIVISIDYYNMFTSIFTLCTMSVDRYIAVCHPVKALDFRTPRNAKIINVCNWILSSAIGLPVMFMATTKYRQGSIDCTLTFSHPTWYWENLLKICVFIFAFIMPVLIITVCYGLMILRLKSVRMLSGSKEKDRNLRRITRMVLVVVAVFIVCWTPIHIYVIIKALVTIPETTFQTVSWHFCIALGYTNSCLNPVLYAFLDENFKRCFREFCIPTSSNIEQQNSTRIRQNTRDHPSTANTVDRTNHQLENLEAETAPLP
# Sequence (P41145 whole entry, looked up): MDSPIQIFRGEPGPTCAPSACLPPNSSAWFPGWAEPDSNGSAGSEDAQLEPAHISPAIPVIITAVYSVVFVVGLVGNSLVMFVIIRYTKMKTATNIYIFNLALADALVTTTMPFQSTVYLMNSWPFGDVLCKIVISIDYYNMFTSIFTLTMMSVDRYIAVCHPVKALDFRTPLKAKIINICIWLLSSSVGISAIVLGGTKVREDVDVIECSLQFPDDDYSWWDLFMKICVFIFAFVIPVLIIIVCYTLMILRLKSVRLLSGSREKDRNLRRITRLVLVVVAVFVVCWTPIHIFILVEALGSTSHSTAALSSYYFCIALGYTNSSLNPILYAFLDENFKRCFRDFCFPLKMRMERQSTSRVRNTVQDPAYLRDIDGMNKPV
# Assay protocol: Selectivity for human kappa opioid receptor over human mu opioid receptor
# Type: functional
Measured property: Ratio Ki
Could you keep your reply to the number by itself?

The following compounds have reported results that may help.
Smiles entry	Tested on	Ratio Ki
CN(C(=O)CC(=O)Nc1ccc(NS(C)(=O)=O)cc1)[C@H](CN1CC[C@H](O)C1)c1ccccc1	Opioid receptors; mu & kappa (Homo sapiens) (UniProt P41145+P35372)	4.8
CN(C(=O)CC(=O)Nc1cccnc1)[C@H](CN1CC[C@H](O)C1)c1ccccc1	Opioid receptors; mu & kappa (Homo sapiens) (UniProt P41145+P35372)	450
CN(C(=O)CC(=O)Nc1nccs1)[C@H](CN1CC[C@H](O)C1)c1ccccc1	Opioid receptors; mu & kappa (Homo sapiens) (UniProt P41145+P35372)	180
CN(C(=O)NCC(=O)Nc1ccccc1)[C@H](CN1CC[C@H](O)C1)c1ccccc1	Opioid receptors; mu & kappa (Homo sapiens) (UniProt P41145+P35372)	110
CN(C(=O)CC(=O)Nc1ccccc1)[C@H](CN1CC[C@H](O)C1)c1ccccc1	Opioid receptors; mu & kappa (Homo sapiens) (UniProt P41145+P35372)	120

Value of Ratio Ki reported for the compound `CN(C(=O)CC(=O)Nc1ccc(CNS(C)(=O)=O)cc1)[C@H](CN1CC[C@H](O)C1)c1ccccc1` is 4.3

Value of Ratio Ki reported for the compound `CN(C(=O)CC(=O)NCc1ccccc1)[C@H](CN1CC[C@H](O)C1)c1ccccc1` is 120

src = ChEMBL document CHEMBL1144622
